Tested on: HCT-116
assayMethodText: Cytostatic activity against human HCT116 cells incubated for 3 days by SRB assay
Assay type: functional
testSettings: HCT-116, 72 h
readout: GI50 (µM)

INSERT INTO assay_data (molsmiles, readout, unitstring, ltgteq, valueobserved) VALUES
  ('C[C@@]1(O)[C@H](O)[C@@H](CO)O[C@H]1n1cc(I)c2c(N)ncnc21', 'GI50', 'µM', '=', 6.65),
  ('C#Cc1cn([C@@H]2O[C@H](CO)[C@@H](O)[C@@H]2F)c2ncnc(N)c12', 'GI50', 'µM', '=', 0.108),
  ('C[C@@]1(O)[C@H](O)[C@@H](CO)O[C@H]1n1cc(-c2ccco2)c2c(N)ncnc21', 'GI50', 'µM', '>', 10),
  ('Nc1ncnc2c1c(-c1cnn[nH]1)cn2[C@@H]1O[C@H](CO)[C@@H](O)[C@@H]1F', 'GI50', 'µM', '=', 7.64),
  ('Nc1ncnc2c1c(-c1ccco1)cn2[C@@H]1O[C@H](CO)[C@@H](O)[C@@H]1F', 'GI50', 'µM', '>', 10);
